Molecular target: human κ-chain (human)
Assay: Kd at pH 8, method not stated; one Kd given for the mutation, ticked in PpL and Y64W PpL
Assay Metric: Kd (nM)
Numbers only here, please. The scale is nM.

Example cases with answers are listed next.
L57H Y64W PpL (protein) MNIKFAGKETPETPEEPKEEVTIKVNLIFADGKIQTAEFKGTFEEATAEAYRYADLHAKVNGEWTADLEDGGNHMNIKFAGK ... 6000
F39H Y64W PpL (protein) MNIKFAGKETPETPEEPKEEVTIKVNLIFADGKIQTAEHKGTFEEATAEAYRYADLLAKVNGEWTADLEDGGNHMNIKFAGK ... 1000
F39H PpL (protein) MNIKFAGKETPETPEEPKEEVTIKVNLIFADGKIQTAEHKGTFEEATAEAYRYADLLAKVNGEYTADLEDGGNHMNIKFAGK ... 1000
L57H PpL (protein) MNIKFAGKETPETPEEPKEEVTIKVNLIFADGKIQTAEFKGTFEEATAEAYRYADLHAKVNGEYTADLEDGGNHMNIKFAGK ... 6000

Now let's try a different one.
Enquiry: Annotate the binder Y53F Y64W PpL (protein) MNIKFAGKETPETPEEPKEEVTIKVNLIFADGKIQTAEFKGTFEEATAEAYRFADLLAKVNGEWTADLEDGGNHMNIKFAGK with its measured Kd.
Return: 1700
